Biological target: I260M pol β (Homo sapiens, UniProt P06746, I260M)
Assay type: biochemical
Conditions: I260M; A-G: misincorporation of dGTP (analogue) opposite template A; 37 °C
measured quantity: pKd
Please treat pKd as minus the base-10 logarithm of the molar concentration.

Given Nc1nc2c(ncn2[C@H]2C[C@H](O)[C@@H](COP(=O)(O)OP(=O)(O)OP(=O)(O)O)O2)c(=O)[nH]1 [A-G O, dGTP, reference compound] , state its recorded pKd.
3.10

* * *

Target: WT pol β (Homo sapiens)
Type: biochemical
Settings: WT; A-T: correct incorporation of dTTP (analogue) opposite template A; 37 °C
measured quantity: pKd
Please treat pKd as minus the base-10 logarithm of the molar concentration.

Given Cc1cn([C@H]2C[C@H](O)[C@@H](COP(=O)(O)OP(=O)(O)OP(=O)(O)O)O2)c(=O)[nH]c1=O [A-T O, dTTP, reference compound] , state its recorded pKd.
4.98

One more compound: Cc1cn([C@H]2C[C@H](O)[C@@H](COP(=O)(O)OP(=O)(O)CP(=O)(O)O)O2)c(=O)[nH]c1=O
5.17

Sourced from paper PMC5634933
